# TESTED ON: Carboxy-terminal domain RNA polymerase II polypeptide A small phosphatase 1 (Homo sapiens, UniProt Q9GZU7)
# Sequence (Q9GZU7 whole entry, the tested form may be a part): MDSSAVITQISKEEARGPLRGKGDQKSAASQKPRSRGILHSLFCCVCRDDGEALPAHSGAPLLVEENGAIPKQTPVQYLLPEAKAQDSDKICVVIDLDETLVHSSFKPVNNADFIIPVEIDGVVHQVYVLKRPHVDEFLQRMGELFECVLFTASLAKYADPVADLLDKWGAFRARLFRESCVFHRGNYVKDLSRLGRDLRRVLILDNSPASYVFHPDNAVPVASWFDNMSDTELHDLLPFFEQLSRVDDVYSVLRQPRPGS
# ASSAY: inhibitors of CTDSP1, concentration-response testing, biochemical assay, absorbance-based, actives from ultra-high-throughput screening (AID 540297)
# Type: functional
Activity calls are given as the source filed them. No stated cut-off is given here; in the data, actives have a measured IC50 and inactives only a lower limit.
Documented IC50 across a set of molecules
ENDPOINT: IC50

[[record]]
molecule = "c1ccc2[nH]c(-c3ccnc4ccccc34)nc2c1"
endpoint = "IC50"
endpoint_value = "3.66 µM (active)"

[[record]]
molecule = "CC[N+](C)(CC)CCC(c1ccccc1)C1CCCCC1 (stereo not given)"
endpoint = "IC50"
endpoint_value = "4.65 µM (active)"

[[record]]
molecule = "COc1ccc(NC(=O)/C(C#N)=C/c2ccc(Br)o2)cc1"
endpoint = "IC50"
endpoint_value = "5.43 µM (active)"

[[record]]
molecule = "COc1ccc2cc(C(=O)Nc3ccc(Cl)cc3)sc(=O)c2c1OC"
endpoint = "IC50"
endpoint_value = "3.51 µM (active)"

[[record]]
molecule = "Cn1c(N)c(C(=O)COC(=O)c2cc(-c3ccco3)nc3ccccc23)c(=O)n(C)c1=O"
endpoint = "IC50"
endpoint_value = "2.52 µM (active)"

